Target or test system: Alkaline phosphatase, placental type (Homo sapiens) (UniProt P05187)
Sequence (P05187 whole entry, looked up): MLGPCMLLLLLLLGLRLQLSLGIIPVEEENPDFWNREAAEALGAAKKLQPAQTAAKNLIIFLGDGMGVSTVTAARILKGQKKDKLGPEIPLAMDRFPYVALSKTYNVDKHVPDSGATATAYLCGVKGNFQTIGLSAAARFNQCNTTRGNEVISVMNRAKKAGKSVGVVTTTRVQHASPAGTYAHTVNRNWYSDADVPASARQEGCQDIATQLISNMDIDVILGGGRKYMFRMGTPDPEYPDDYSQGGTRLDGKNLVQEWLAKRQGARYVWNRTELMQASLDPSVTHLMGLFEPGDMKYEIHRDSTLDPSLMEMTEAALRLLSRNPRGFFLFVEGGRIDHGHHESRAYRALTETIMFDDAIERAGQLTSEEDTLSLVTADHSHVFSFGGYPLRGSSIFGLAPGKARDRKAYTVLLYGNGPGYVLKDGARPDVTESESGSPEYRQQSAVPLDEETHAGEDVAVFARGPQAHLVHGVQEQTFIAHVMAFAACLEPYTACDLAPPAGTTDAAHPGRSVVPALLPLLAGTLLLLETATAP
Run description: PLAP enzyme inhibitors, biochemical, luminescence, HTS (AID 690)
Test conditions: purified PLAP, luminescent substrate; at 20 µM; stronger effect = higher value
Screen size: about 96,000 compounds; about 80 (0.08%) were called active. A selection follows. Potency and affinity values are given separately.
Measured attribute: inhibition (%)
Numbers only; they are read as %.

Below, 5 molecules whose answers are already recorded.
[[record]]
molecule = "CC(C)N(CCNS(=O)(=O)c1ccc(Cl)cc1)C(C)C"
target_or_test_system = "Alkaline phosphatase, placental type (Homo sapiens) (UniProt P05187)"
recorded_measurement = 9.6

[[record]]
molecule = "Cc1ccccc1CSc1nccn1-c1ccccc1"
target_or_test_system = "Alkaline phosphatase, placental type (Homo sapiens) (UniProt P05187)"
recorded_measurement = 19

[[record]]
molecule = "Cc1nn(-c2ccccc2)c(C)c1CCC(=O)O"
target_or_test_system = "Alkaline phosphatase, placental type (Homo sapiens) (UniProt P05187)"
recorded_measurement = -21.2

[[record]]
molecule = "c1ccc([C@H]2CC3C[C@@H](c4ccccc4)N2O3)cc1"
target_or_test_system = "Alkaline phosphatase, placental type (Homo sapiens) (UniProt P05187)"
recorded_measurement = -8.8

[[record]]
molecule = "CC1=C(C(N)=O)C(c2ccncc2)n2nc(-c3ccccc3Cl)nc2N1 (stereo unspecified)"
target_or_test_system = "Alkaline phosphatase, placental type (Homo sapiens) (UniProt P05187)"
recorded_measurement = 8.9


(Q) Can you look up inhibition on Alkaline phosphatase, placental type (Homo sapiens) (UniProt P05187) for "O=C(COC(=O)c1ccc(Cl)c(S(=O)(=O)N2CCCC2)c1)NC1CCCC1" ?
(A) -44.5

---

Below: a set of entries, each annotated with reported inhibition.
Target or test system: Alkaline phosphatase, placental type (Homo sapiens) (UniProt P05187)
Run description: PLAP enzyme inhibitors, biochemical, luminescence, HTS (AID 690)
Test conditions: purified PLAP, luminescent substrate; at 20 µM; stronger effect = higher value
The whole screen tested about 96,000 compounds, of which about 80 (0.08%) were called active. Only a sample is shown. Results with a measured potency or affinity are listed apart.
A number alone suffices; assume %.

[[record]]
molecule = "C=CCn1c(SCC(=O)Nc2ccccc2OC)nnc1-c1ccco1"
units_label = "%"
recorded_measurement = 8

[[record]]
molecule = "O=C(CC1(O)C(=O)Nc2ccccc21)c1cccnc1 (stereo not given)"
units_label = "%"
recorded_measurement = 26.9

[[record]]
molecule = "Fc1cccc(Cl)c1CSc1nnnn1-c1ccc2c(c1)OCO2"
units_label = "%"
recorded_measurement = 22.7

[[record]]
molecule = "O=C1c2ccc3c4c(ccc(c24)C(=O)N1Cc1cccnc1)C(=O)N(Cc1cccnc1)C3=O"
units_label = "%"
recorded_measurement = 4.9

[[record]]
molecule = "CCn1c(C)c(C(C)=O)c(N2CCN(c3ccccc3)CC2)nc1=S"
units_label = "%"
recorded_measurement = -3.4


# evaluate next
(Q) I am curious: what inhibition value has been reported for "CCC(CC)NC(=O)Cc1ccccc1[N+](=O)[O-]" ?
(A) -5.8

---

Target or test system: Alkaline phosphatase, placental type (Homo sapiens) (UniProt P05187)
Run description: PLAP enzyme inhibitors, biochemical, luminescence, HTS (AID 690)
Test conditions: purified PLAP, luminescent substrate; at 20 µM; stronger effect = higher value
Hit rate of the full screen: of about 96,000 compounds, about 80 (0.08%) were called active. These entries were drawn from the full list. Entries with a potency or affinity are not part of this list.
Measured attribute: inhibition (%)
Express the result in % but write the number alone.

Consider the worked cases shown below.
[[record]]
compound = "COC(=O)c1cc(NC(=O)C2COc3ccccc3O2)ccc1Cl (stereo not given)"
measured_attribute = "inhibition"
units_label = "%"
recorded_measurement = 28.8

[[record]]
compound = "CCOC(=O)c1c(-n2c(C)cc(C=O)c2C)sc2c1CCCC2"
measured_attribute = "inhibition"
units_label = "%"
recorded_measurement = -34.6

[[record]]
compound = "COC(=O)c1ccc(/C=C/C(=O)c2ccc(OC)cc2)cc1"
measured_attribute = "inhibition"
units_label = "%"
recorded_measurement = 15.1


(Q) # query: inhibition of entry "CCOC(=O)CN1C(=O)S/C(=C/c2ccc(N3CCCCC3)o2)C1=O"
(A) -4.2

(Q) Bench note: what inhibition did "CCOC(=O)/C(C#N)=C1/C=Cc2ccccc2N1CC" show?
(A) 3.8
